The origin of these recorded values is patent US20160200733A1.

Molecular target: mAChR hM4 (Homo sapiens, UniProt P08173)
Construct: expressed in transfected cells; host or cells: CHO-K1 (Chinese hamster ovary) cells
Sequence (P08173 whole entry): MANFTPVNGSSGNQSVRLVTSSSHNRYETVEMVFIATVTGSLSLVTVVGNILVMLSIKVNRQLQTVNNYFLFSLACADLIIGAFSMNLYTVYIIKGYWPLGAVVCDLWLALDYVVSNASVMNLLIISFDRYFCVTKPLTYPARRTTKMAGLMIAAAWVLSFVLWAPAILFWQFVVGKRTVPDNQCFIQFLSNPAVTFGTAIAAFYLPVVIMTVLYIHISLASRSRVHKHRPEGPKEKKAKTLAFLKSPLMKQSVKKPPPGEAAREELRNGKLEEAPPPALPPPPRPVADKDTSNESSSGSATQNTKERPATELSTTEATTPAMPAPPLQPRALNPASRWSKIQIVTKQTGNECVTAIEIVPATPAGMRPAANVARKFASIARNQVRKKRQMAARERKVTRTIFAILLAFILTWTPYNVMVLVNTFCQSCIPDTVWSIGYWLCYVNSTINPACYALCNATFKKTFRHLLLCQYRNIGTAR
Test: mAChR M4 cell-based functional assay (calcium flux, potentiation of EC20 acetylcholine response)
Details: % ACh maximum at 30 μM; mAChR hM4 cell-line
measured-property: Emax at 30 µM (%)

Cc1cc(C)c2c(C)c(C(=O)NC3CC3)sc2n1: 73

P = Cc1cc(C)c2c(C)c(C(=O)NCc3ccc4c(c3)OCCO4)sc2n1
Q = Cc1cc(C)c2c(Br)c(C(=O)NCC3CC3)sc2n1
Data request: Returns: the argument ( P or Q ) having the larger Emax at 30 µM. Pick one and reply with its label.
Data returned: P
(P: 57%, Q: 29%)

----------
Target: mAChR hM4 (Homo sapiens, UniProt P08173)
Construct: expressed in transfected cells; host or cells: CHO-K1 (Chinese hamster ovary) cells
Test: mAChR M4 cell-based functional assay (calcium flux, potentiation of EC20 acetylcholine response)
Conditions: % ACh maximum at 30 μM; mAChR hM4 cell-line
measured-property: Emax at 30 µM (%)

Cc1cc(C)c2c(Br)c(C(=O)NC3(C)COC3)sc2n1 [Compound 8]: 59
CCc1c(C(=O)NCc2ccc(S(C)(=O)=O)cc2)sc2nc(C)cc(C)c12 [Compound 38]: 67
Cc1nc2sc(C(=O)NC3COC3)c(Cl)c2c(C)c1Cl [Compound 126]: 67
Cc1nc2sc(C(=O)NC3(C)COC3)c(Br)c2c(C)c1Cl [Compound 48]: 54
